measured.on: EP300 bromodomain (Homo sapiens, UniProt Q09472)
Construct: 6xHis (cleaved yes); host or cells: E. coli BL21 (DE3) RIL
Sequence (Q09472 1048-1161): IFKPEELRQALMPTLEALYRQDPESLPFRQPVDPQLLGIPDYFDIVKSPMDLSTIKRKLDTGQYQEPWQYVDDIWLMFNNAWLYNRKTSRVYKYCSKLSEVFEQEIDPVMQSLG
assay.remarks: Isothermal titration calorimetry (ITC)
Type: binding
condition.notes: single ITC experiment, data fit ± SEM

- compound: "Cc1noc(C)c1-c1ccc2c(c1)nc(C1CCCC(=O)N1)n2C1CCC(NC(=O)OC(C)(C)C)CC1 (stereo not shown)"
  result.unit: "nM"
  Kd: 2300

====

measured.on: EP300 bromodomain (Homo sapiens, UniProt Q09472)
Construct: 6xHis (cleaved yes); host or cells: E. coli BL21 (DE3) RIL
assay.remarks: Differential scanning fluorimetry (DSF) thermal shift
Format: binding
condition.notes: DSF; 5 μM protein, 100 μM compound; three independent experiments, average ± SD
Parameter: ∆Tm (°C) EP300. Scope: all listed entries.

- compound: "Cc1noc(C)c1-c1ccc2c(c1)nc(C1CCCC(=O)N1)n2C1CCC(NC(=O)OC(C)(C)C)CC1 (centres unmarked) [Compound 1]"
  ∆Tm (°C) EP300: 7.3
- compound: "COC1CCC(n2c(C3CCCC(=O)N3c3cccc(C(F)F)c3)nc3cc(-c4c(C)noc4C)ccc32)CC1 (centres unmarked) [Compound 3]"
  ∆Tm (°C) EP300: 15.2
- compound: "COC1CCC(n2c(C3CCCC(=O)N3c3ccccc3)nc3cc(-c4c(C)noc4C)ccc32)CC1 (centres unmarked) [Compound 5]"
  ∆Tm (°C) EP300: 14.8
- compound: "COC1CCC(n2c(C3CCCC(=O)N3c3ccc4c(c3)OCCO4)nc3cc(-c4c(C)noc4C)ccc32)CC1 (centres unmarked) [Compound 7]"
  ∆Tm (°C) EP300: 13.5
- compound: "CO[C@H]1CC[C@H](n2c([C@@H]3CCCC(=O)N3c3ccc(F)c(F)c3)nc3cc(-c4c(C)noc4C)ccc32)CC1 [CCS1477]"
  ∆Tm (°C) EP300: 18.3
- compound: "COC1CCC(n2c(C3CCCC(=O)N3c3cccc(C(C)(C)C)c3)nc3cc(-c4c(C)noc4C)ccc32)CC1 (centres unmarked) [Compound 6]"
  ∆Tm (°C) EP300: 14.3
- compound: "COC1CCC(n2c(C3CCCC(=O)N3c3cc(C(F)(F)F)cc(C(F)(F)F)c3)nc3cc(-c4c(C)noc4C)ccc32)CC1 (centres unmarked) [Compound 4]"
  ∆Tm (°C) EP300: 9.2
- compound: "COC1CCC(n2c(C3CCCC(=O)N3)nc3cc(-c4c(C)noc4C)ccc32)CC1 (centres unmarked) [Compound 2]"
  ∆Tm (°C) EP300: 5.6

====

measured.on: GFP-tagged CBP bromodomain (Homo sapiens, UniProt Q92793)
Sequence (Q92793 1085-1192 limits assumed): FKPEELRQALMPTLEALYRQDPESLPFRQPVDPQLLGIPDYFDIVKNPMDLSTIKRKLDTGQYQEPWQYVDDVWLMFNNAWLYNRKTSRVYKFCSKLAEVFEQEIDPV
assay.remarks: Microscale thermophoresis (MST)
Type: binding
condition.notes: three independent MST experiments, average ± SD; read-out: Kd (nM) CBP
API: label(entry) gives yes if the entry's Kd is strictly smaller than 100 nM; on equality or larger values it gives no.

- molecule: "COC1CCC(n2c(C3CCCC(=O)N3c3cccc(C(F)F)c3)nc3cc(-c4c(C)noc4C)ccc32)CC1 (centres unmarked) [Compound 3]"
  category: "yes"
- molecule: "COC1CCC(n2c(C3CCCC(=O)N3c3cccc(C(C)(C)C)c3)nc3cc(-c4c(C)noc4C)ccc32)CC1 (centres unmarked) [Compound 6]"
  category: "yes"
- molecule: "COC1CCC(n2c(C3CCCC(=O)N3c3ccccc3)nc3cc(-c4c(C)noc4C)ccc32)CC1 (centres unmarked) [Compound 5]"
  category: "yes"
- molecule: "COC1CCC(n2c(C3CCCC(=O)N3)nc3cc(-c4c(C)noc4C)ccc32)CC1 (centres unmarked) [Compound 2]"
  category: "no"
- molecule: "COC1CCC(n2c(C3CCCC(=O)N3c3cc(C(F)(F)F)cc(C(F)(F)F)c3)nc3cc(-c4c(C)noc4C)ccc32)CC1 (centres unmarked) [Compound 4]"
  category: "no"

====

measured.on: CBP bromodomain (Homo sapiens, UniProt Q92793)
Construct: CBP (residues 1081-1197); 6xHis (cleaved yes); host or cells: E. coli BL21 (DE3) RIL
Sequence (Q92793 1081-1197): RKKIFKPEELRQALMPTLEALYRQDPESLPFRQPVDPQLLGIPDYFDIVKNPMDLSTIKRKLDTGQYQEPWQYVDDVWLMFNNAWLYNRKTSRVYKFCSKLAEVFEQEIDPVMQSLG
assay.remarks: Differential scanning fluorimetry (DSF) thermal shift
Type: binding
condition.notes: Figure 3C, DSF (values equal CBP column)
API: label(entry) gives Satisfied if the entry's DSF ΔTm (°C) is strictly smaller than 10 °C; on equality or larger values it gives Not satisfied.

- compound: "COC1CCC(n2c(C3CCCC(=O)N3c3cccc(C(F)F)c3)nc3cc(-c4c(C)noc4C)ccc32)CC1 (stereo not drawn) [Compound 3]"
  category: "Not satisfied"
- compound: "COC1CCC(n2c(C3CCCC(=O)N3c3cccc(C(C)(C)C)c3)nc3cc(-c4c(C)noc4C)ccc32)CC1 (stereo not drawn) [iCBP-6]"
  category: "Not satisfied"
- compound: "COC1CCC(n2c(C3CCCC(=O)N3)nc3cc(-c4c(C)noc4C)ccc32)CC1 (stereo not drawn) [Compound 2]"
  category: "Satisfied"
- compound: "COC1CCC(n2c(C3CCCC(=O)N3c3ccccc3)nc3cc(-c4c(C)noc4C)ccc32)CC1 (stereo not drawn) [Compound 5]"
  category: "Not satisfied"
- compound: "COC1CCC(n2c(C3CCCC(=O)N3c3ccc4c(c3)OCCO4)nc3cc(-c4c(C)noc4C)ccc32)CC1 (stereo not drawn) [Compound 7]"
  category: "Not satisfied"
